molecular target: UniProt Q5BJF2
Sequence (Q5BJF2 whole entry): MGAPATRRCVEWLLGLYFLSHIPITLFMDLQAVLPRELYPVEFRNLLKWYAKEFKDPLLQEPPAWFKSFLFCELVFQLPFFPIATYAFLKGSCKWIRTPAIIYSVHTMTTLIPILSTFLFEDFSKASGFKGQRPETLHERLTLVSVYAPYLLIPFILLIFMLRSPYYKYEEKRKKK
Counter-ions that a name gives are not always drawn.
test_readout: Ki (nM)

* O=C(CN1CCC(CN2Cc3ccccc3C2=O)CC1)c1ccc(F)cc1 [Compound (I), monohydrochloride dihydrate] | 8.19

----------
assay: Part 1 single dose MR formulation pharmacokinetic study in healthy CYP2D6 EM male subjects; format: in vivo, human; conditions: male, human, oral; Period 1, 32 mg Slow Release, Fasted, plasma analyte; read-out: Tmax, Median
Counter-ions that a name gives are not always drawn.
test_readout: Tmax (h)

• O=C(CN1CCC(CN2Cc3ccccc3C2=O)CC1)c1ccc(F)cc1 [Compound (I), monohydrochloride dihydrate] = 2.25

----------
target: al-adrenergic receptors; assay: In vitro receptor binding studies
pKi: −log10 of the molar value. Structures can show the parent of a compound that is named as a salt.
test_readout: pKi

* O=C(CN1CCC(CN2Cc3ccccc3C2=O)CC1)c1ccc(F)cc1 [Compound (I), monohydrochloride dihydrate] | 7.84

Values were extracted from patent US10258614B2.
